Test system: PC3 prostate cancer cells
ASSAY COMMENT: Cell proliferation assay in prostate cancer PC3 cells
Format: cell-based
CONDITIONS USED: Homo sapiens, PC-3
Please mark t if the recorded inhibition at 10 µM is equal to or greater than 60%, and f if it falls below.

{"COMPOUND": "COc1ccc(-c2coc3c4c(ccc3c2=O)OC2OCCCC2C4)cc1 (centres unmarked) [Isoflavonoid 21a]", "ASSIGNED CLASS": "t"}
{"COMPOUND": "COc1ccc(-c2coc3c4c(ccc3c2=O)OC2OCCCC2C4)cc1OC (centres unmarked) [Isoflavonoid 21b]", "ASSIGNED CLASS": "f"}
{"COMPOUND": "COc1ccc(-c2coc3c4c(ccc3c2=O)OC2OCCC2C4)cc1 (centres unmarked) [Isoflavonoid 20a]", "ASSIGNED CLASS": "t"}
{"COMPOUND": "COc1ccc(-c2coc3cc(OC)c(CO)c(O)c3c2=O)cc1 [Isoflavonoid 8b]", "ASSIGNED CLASS": "f"}
{"COMPOUND": "O=c1c(-c2ccc3c(c2)OCCO3)coc2c3c(ccc12)OC1OCCCC1C3 (centres unmarked) [Isoflavonoid 21d]", "ASSIGNED CLASS": "f"}
{"COMPOUND": "COc1ccc(-c2c(C)oc3c4c(ccc3c2=O)OC2OCCCC2C4)cc1 (centres unmarked) [Isoflavonoid 21g]", "ASSIGNED CLASS": "t"}
{"COMPOUND": "O=c1c(-c2ccc(Cl)cc2)coc2c3c(ccc12)OC1OCCCC1C3 (centres unmarked) [Isoflavonoid 21e]", "ASSIGNED CLASS": "f"}
{"COMPOUND": "COCc1c(OC)cc2occ(-c3ccc(OC)cc3)c(=O)c2c1O [Isoflavonoid 10b]", "ASSIGNED CLASS": "f"}

###

Reported melting point by item:

{"COMPOUND": "COc1ccc(-c2coc3c(CO)c(O)ccc3c2=O)cc1", "melting point": "150 to 152 °C (dec.)"}
{"COMPOUND": "COCc1cc2c(=O)c(-c3ccc(OC)cc3)coc2c(C)c1O [Isoflavonoid 10c]", "melting point": "143 to 145 °C"}
{"COMPOUND": "O=c1c(-c2ccc(Cl)cc2)coc2c3c(ccc12)OC1OCCCC1C3 (centres unmarked) [Isoflavonoid 21e]", "melting point": "195 to 197 °C"}
{"COMPOUND": "Cc1oc2c3c(ccc2c(=O)c1-c1ccc(Cl)cc1)OC1OCCC1C3 (centres unmarked) [Isoflavonoid 20i]", "melting point": "266 to 268 °C"}
{"COMPOUND": "COc1ccc(-c2coc3c4c(ccc3c2=O)OC2OCCCC2C4)cc1 (centres unmarked) [Isoflavonoid 21a]", "melting point": "182 to 183 °C"}
{"COMPOUND": "COc1ccc(-c2coc3cc(OC)c(CO)c(O)c3c2=O)cc1", "melting point": "138 to 139 °C"}
{"COMPOUND": "Cc1oc2c3c(ccc2c(=O)c1-c1ccc(Cl)cc1)OC1OCCCC1C3 (centres unmarked) [Isoflavonoid 21i]", "melting point": "205 to 206 °C"}
{"COMPOUND": "O=c1c(-c2ccc3c(c2)OCO3)coc2c3c(ccc12)OC1OCCC1C3 (centres unmarked) [Isoflavonoid 20c]", "melting point": "203 to 205 °C"}
{"COMPOUND": "Cc1oc2c3c(ccc2c(=O)c1-c1ccccc1)OC1=C(C3)C(=O)CC(C)(C)C1 [Isoflavonoid 22f]", "melting point": "265 to 266 °C"}
{"COMPOUND": "COc1ccc(-c2coc3c4c(ccc3c2=O)OC2=C(C4)C(=O)CC(C)(C)C2)cc1 [Isoflavonoid 22a]", "melting point": "223 to 225 °C"}
{"COMPOUND": "COCc1c(OC)cc(O)c2c(=O)c(-c3ccccc3OC)coc12 [Isoflavonoid 11a]", "melting point": "154 to 155 °C"}
{"COMPOUND": "COCc1c(O)ccc2c(=O)c(-c3ccc(OC)cc3)c(C)oc12 [Isoflavonoid 11e]", "melting point": "215 to 217 °C (dec.)"}
{"COMPOUND": "COc1ccc(-c2coc3c4c(ccc3c2=O)OC2OCCC2C4)cc1 (centres unmarked) [Isoflavonoid 20a]", "melting point": "201 to 202 °C"}
{"COMPOUND": "COCc1c(OC)cc(O)c2c(=O)c(-c3ccc(OC)cc3)coc12 [Isoflavonoid 11b]", "melting point": "126 to 128 °C"}
{"COMPOUND": "COc1ccc(-c2coc3c(C)c(OC(C)=O)c(COC(C)=O)cc3c2=O)cc1", "melting point": "136 to 138 °C"}
{"COMPOUND": "COc1ccc(-c2c(C)oc3c(COC(C)=O)c(OC(C)=O)ccc3c2=O)cc1", "melting point": "142 to 144 °C"}
{"COMPOUND": "COc1ccc(-c2c(C)oc3c(CC4CCCC4=O)c(O)ccc3c2=O)cc1 (centres unmarked) [Isoflavonoid 23g]", "melting point": "210 to 211 °C"}
